tested on: SF-295; test: NCI tumour cell line growth inhibition, 48 h
Activity calls are given as the source filed them. Rule as the data show it: active = GI50 up to about 1.1 µM and inactive = higher.
Choose the fitting class; nothing outside active, inactive is accepted.

The examples below pair each entry with its known result.
INSERT INTO results (compound, class) VALUES
  ('CC1(C)OC(=O)C(=C2CCC(C(=O)Nc3cccc(C(F)(F)F)c3)N2)C(=O)O1 (centres undefined)', 'inactive'),
  ('COc1ccc(C2SC(=N)Nc3c2c(C)nn3C(=O)c2ccccc2O)cc1 (centres undefined)', 'inactive'),
  ('O=[N+]([O-])c1ccc2c(c1)nc1n2C(c2c(F)cccc2F)SC1 (centres undefined)', 'inactive');

# input What was the test verdict on Nc1ccc2c3[nH]c4cc(N)ccc4cc-3nc2c1 ?
# output active

# input What was the test verdict on COC1=CC(=O)c2c(c(O)c3oc4cc(OC)cc(C)c4c(=O)c3c2O)C1=O ?
# output inactive

# input What was the test verdict on O=[N+]([O-])c1ccc2nc(/C(=N/Nc3ccccc3)C(O)c3ccc(C(O)/C(=N\Nc4ccccc4)c4nc5ccc([N+](=O)[O-])cc5nc4O)cc3)cnc2c1 (centres undefined) ?
# output inactive

# input What was the test verdict on C/C(CCOC1CCCCO1)=C(\C)[Si](C)(C)C (centres undefined) ?
# output inactive

# input What was the test verdict on COC(c1ccc(C(C)(C)C)cc1)(c1ccc(C(C)(C)C)cc1)c1ccc(C(C)(C)C)cc1 ?
# output inactive

# input What was the test verdict on O=C1c2[nH]c3ccc(Br)cc3c2CCN1Cc1ccc(Cl)cc1 ?
# output inactive

---

system: HCT-116; assay: NCI tumour cell line growth inhibition, 48 h
Active and inactive are the calls of the source. Rule as the data show it: active = GI50 up to about 1.1 µM and inactive = higher. Non-standard residues stand in square brackets, D forms with d. Residues, ends and D or L forms follow the SMILES beside them. ξ: configuration not given here. *: point of attachment. ξF = NC(Cc1ccccc1)C(=O)O; Cbz = O=C(OCc1ccccc1)*; Aib = CC(C)(N)C(=O)O
Choose the fitting class; nothing outside active, inactive is accepted.

The examples below pair each entry with its known result.
INSERT INTO measurements (molecule, test_target, class) VALUES
  ('O=C(NCCc1ccccc1)c1c(O)nc2ccccc2c1O', 'HCT-116', 'inactive'),
  ('COC(=O)C1=CC(=O)OC1(OO)c1ccccc1 (stereo not given)', 'HCT-116', 'inactive'),
  ('CCOC(=O)CNC(=O)C(Cc1ccccc1)NC(=O)C(C)(C)NC(=O)OCc1ccccc1 (stereo not given) (Cbz-[Aib]-[ξF]-Gly-OEt)', 'HCT-116', 'inactive');

# input What was the test verdict on CCOC(=O)c1cnc2[nH]ccn2c1=O ?
# output inactive

# input What was the test verdict on CCOc1ccc(/N=C/c2ccnc3ccccc23)cc1 ?
# output active

# input What was the test verdict on O=C1c2[nH]c3ccc(Br)cc3c2CCN1Cc1ccc(Cl)cc1 ?
# output inactive

---

test system: KM12; assay: NCI tumour cell line growth inhibition, 48 h
Calls of active or inactive are those of the source. Rule as the data show it: active = GI50 up to about 1.1 µM and inactive = higher.
Choose the fitting class; nothing outside YES for active, NO for inactive is accepted.

INSERT INTO assay_data (molecule, test_target, class) VALUES
  ('N#Cc1c(C[n+]2ccccc2)c2ccccc2oc1=O', 'KM12', 'NO'),
  ('Ic1ccc2c(c1)N(c1ccccc1)c1cc([N-]c3ccc4nc5ccc(I)cc5[n+](-c5ccccc5)c4c3)ccc1N2', 'KM12', 'NO'),
  ('FC(F)(F)c1nc(-c2ccccc2Cl)[nH]c1C(F)(F)F', 'KM12', 'YES'),
  ('COC(=O)CCc1ccc2c(c1)CC1(C2)Cc2ccc(CCC(=O)OC)cc2C1', 'KM12', 'NO'),
  ('O=C1CCCc2cc3c(cc21)CCC3C(=O)O (configuration not stated)', 'KM12', 'NO'),
  ('CC(C)Nc1[nH]c(C(=O)c2ccccc2)c(N)c1C(=S)Nc1ccccc1', 'KM12', 'NO'),
  ('Nc1nc(N)c2cc(Sc3ccc4ccccc4c3)ccc2n1', 'KM12', 'NO'),
  ('CC1(C)O[C@@H]2[C@@H]3OC(=O)C[C@@H]3[C@@H](COCc3ccccc3)[C@@H]2O1', 'KM12', 'NO');

# input What was the test verdict on O=CCCCC(Sc1ccccc1)Sc1ccccc1 ?
# output NO

# input What was the test verdict on CC1(C)OC(=O)C(=C2CCC(C(=O)Nc3cccc(C(F)(F)F)c3)N2)C(=O)O1 (configuration not stated) ?
# output NO

# input What was the test verdict on NNS(=O)(=O)c1ccc(/C=C2\NC(=O)NC2=O)cc1 ?
# output NO
